Test system: MDR1
protocol: MDCK-MDR1 permeability assay (BBB penetration potential)
Type: in vitro ADME
measurement_parameters: dog, MDCK-MDR1, pH 7.4, MDCK-MDR1: Efflux
Protocol: Each determination is performed in duplicate. […] Analytical conditions are outlined below.
reported_property: efflux ratio at 120 min, 5 μM
Just the number.

Examples with their reported efflux ratio at 120 min, 5 μM follow.
compound	target_or_system	efflux ratio at 120 min, 5 μM
Cn1cc(-c2ccc(-c3ccc(O[C@H]4C[C@H]5CCC[C@H](N5)[C@@H]4F)nn3)c(O)c2)cn1 (single isomer, unassigned)	MDR1	5
Cn1cc(-c2cc(O)c(-c3ccc(O[C@@H]4C[C@H]5CCC[C@H](N5)[C@@H]4F)nn3)cc2Cl)cn1 (single isomer, unassigned)	MDR1	8
Oc1cc2ncccc2cc1-c1ccc(O[C@@H]2C[C@H]3CCC[C@H](N3)[C@@H]2F)nn1 (single isomer, unassigned)	MDR1	16
Cn1ccc(-c2ccc(-c3ccc(O[C@H]4C[C@]5(C)CCC[C@@](C)(N5)[C@H]4F)nn3)c(O)c2)cc1=O (single isomer, unassigned)	MDR1	22
Cn1cc(-c2cc(O)c(-c3ccc(O[C@H]4C[C@@H]5CCC[C@@H](N5)[C@H]4F)nn3)cc2F)cn1 (single isomer, unassigned)	MDR1	4

Proceeding to the next compound to report its efflux ratio at 120 min, 5 μM.
Exam item: Using the record for Oc1cc(-c2cn[nH]c2)ccc1-c1ccc(O[C@@H]2C[C@H]3COC[C@H](N3)[C@@H]2F)nn1 (single isomer, unassigned) , report its efflux ratio at 120 min, 5 μM.
Marked response: 14

---

System: MDR1
protocol: MDCK-MDR1 permeability assay (BBB penetration potential)
Format: in vitro ADME
measurement_parameters: dog, MDCK-MDR1, pH 7.4, MDCK-MDR1: Efflux
efflux ratio at 120 min, 5 μM listing for selected compounds.
Just the number.

compound	target_or_system	quantitative_readout
Oc1cc(-n2cccn2)ccc1-c1ccc(O[C@@H]2C[C@H]3CC[C@H](N3)[C@@H]2F)nn1 (single isomer, unassigned)	MDR1	4
Oc1cc(-c2cn[nH]c2)ccc1-c1ccc(O[C@@H]2C[C@H]3CCC[C@H](N3)[C@H]2F)nn1 (single isomer, unassigned)	MDR1	8
Cn1cc(-c2ccc(-c3ccc(O[C@H]4C[C@@H]5CCC[C@@H](N5)[C@H]4F)nn3)c(O)c2)oc1=O (single isomer, unassigned)	MDR1	10
Cn1cc(-c2ccc(-c3ccc(O[C@@H]4C[C@H]5CC[C@H](N5)[C@@H]4F)nn3)c(O)c2)cn1 (single isomer, unassigned)	MDR1	4
Oc1cc(-c2cnn3ccccc23)ccc1-c1ccc(O[C@@H]2C[C@H]3CCC[C@H](N3)[C@@H]2F)nn1 (single isomer, unassigned)	MDR1	3
Oc1cc(-c2cnccn2)ccc1-c1ccc(O[C@H]2C[C@@H]3CCC[C@@H](N3)[C@H]2F)nn1 (single isomer, unassigned)	MDR1	3

Exam item: Using the record for Oc1cc(-c2nnco2)ccc1-c1ccc(O[C@@H]2C[C@H]3CCC[C@H](N3)[C@@H]2F)nn1 (single isomer, unassigned) , report its efflux ratio at 120 min, 5 μM.
Marked response: 6

Exam item: Using the record for Cn1ccc(-c2ccc(-c3ccc(O[C@@H]4C[C@H]5CCC[C@H](N5)[C@@H]4F)nn3)c(O)c2)nc1=O (single isomer, unassigned) , report its efflux ratio at 120 min, 5 μM.
Marked response: 90

Exam item: Using the record for Cn1ccc(-c2ccc(-c3ccc(O[C@@H]4C[C@@]5(C)CCC[C@](C)(N5)[C@@H]4F)nn3)c(O)c2)cc1=O (single isomer, unassigned) , report its efflux ratio at 120 min, 5 μM.
Marked response: 24

Exam item: Using the record for Oc1cc(-c2cc[nH]n2)ccc1-c1ccc(O[C@H]2C[C@@H]3CCC[C@@H](N3)[C@H]2F)nn1 (single isomer, unassigned) , report its efflux ratio at 120 min, 5 μM.
Marked response: 9

Exam item: Using the record for Cc1cncc(-c2ccc(-c3ccc(O[C@@H]4C[C@H]5CCC[C@H](N5)[C@@H]4F)nn3)c(O)c2)n1 (single isomer, unassigned) , report its efflux ratio at 120 min, 5 μM.
Marked response: 6

Exam item: Using the record for C[C@]12CCC[C@](C)(N1)[C@H](F)[C@H](Oc1ccc(-c3ccc(-c4cn[nH]c4)cc3O)nn1)C2 (single isomer, unassigned) , report its efflux ratio at 120 min, 5 μM.
Marked response: 13

---

System: MDR1-MDCK cell monolayers
protocol: MDCK-MDR1 permeability assay (BBB penetration potential)
Assay type: in vitro ADME
measurement_parameters: dog, MDCK-MDR1, 120 min, 5 μM, pH 7.4
MDCK-MDR1: % Recov B-A listing for selected compounds.
Quick reminder: number only, in %, skip the unit.

Examples with their reported MDCK-MDR1: % Recov B-A follow.
compound	quantitative_readout
Cn1ccc2cc(-c3ccc(O[C@H]4C[C@@H]5CC[C@@H](N5)[C@H]4F)nn3)c(O)cc2c1=O (single isomer, unassigned) [126-ENT1]	95
Oc1cc(-c2ccn3cnnc3c2)ccc1-c1ccc(O[C@H]2C[C@@H]3CCC[C@@H](N3)[C@H]2F)nn1 (single isomer, unassigned) [86-ENT2]	74
Cn1cc(-c2ccc(-c3ccc(O[C@@H]4C[C@@]5(C)CC[C@](C)(N5)[C@@H]4F)nn3)c(O)c2)cn1 (single isomer, unassigned) [150-ENT2]	87
C[C@@]12CC[C@@](C)(N1)[C@@H](F)[C@@H](Oc1ccc(-c3ccc(-c4cn[nH]c4)cc3O)nn1)C2 (single isomer, unassigned) [2-ENT2]	87

Exam item: Please state recorded MDCK-MDR1: % Recov B-A (tested on MDR1-MDCK cell monolayers) of Cn1ccc(-c2ccc(-c3ccc(O[C@H]4C[C@@H]5CCC[C@@H](N5)[C@H]4F)nn3)c(O)c2)nc1=O (single isomer, unassigned) [107-ENT2]
Marked response: 103

Exam item: Please state recorded MDCK-MDR1: % Recov B-A (tested on MDR1-MDCK cell monolayers) of Cc1cc(-c2ccc(-c3ccc(O[C@H]4C[C@@H]5CCC[C@@H](N5)[C@H]4F)nn3)c(O)c2)ccn1 (single isomer, unassigned) [88-ENT2]
Marked response: 71

Exam item: Please state recorded MDCK-MDR1: % Recov B-A (tested on MDR1-MDCK cell monolayers) of Cc1ccc(-c2ccc(-c3ccc(O[C@H]4C[C@@H]5CCC[C@@H](N5)[C@H]4F)nn3)c(O)c2)cn1 (single isomer, unassigned) [67-ENT2]
Marked response: 76

---

Test system: MDR1-MDCK cell monolayers
protocol: MDCK-MDR1 permeability assay (BBB penetration potential)
Format: in vitro ADME
measurement_parameters: dog, MDCK-MDR1, 120 min, 5 μM, pH 7.4
MDCK-MDR1: % Recov B-A listing for selected compounds.
Quick reminder: number only, in %, skip the unit.

Exam item: Using the record for Oc1cc2cccnc2cc1-c1ccc(O[C@H]2C[C@@H]3CCC[C@@H](N3)[C@H]2F)nn1 (single isomer, unassigned) , report its MDCK-MDR1: % Recov B-A.
Marked response: 70

Exam item: Using the record for Oc1cc(-c2ccn3ccnc3c2)ccc1-c1ccc(O[C@H]2C[C@@H]3CCC[C@@H](N3)[C@H]2F)nn1 (single isomer, unassigned) , report its MDCK-MDR1: % Recov B-A.
Marked response: 66

---

System: MDR1-MDCK cell monolayers
protocol: MDCK-MDR1 permeability assay (BBB penetration potential)
Type: in vitro ADME
measurement_parameters: dog, MDCK-MDR1, 120 min, 5 μM, pH 7.4
reported_property: MDCK-MDR1: % Recov B-A (%)
Quick reminder: number only, in %, skip the unit.

Examples with their reported MDCK-MDR1: % Recov B-A follow.
compound	target_or_system	reported_property	value_unit	quantitative_readout
Oc1cc(-c2nncs2)ccc1-c1ccc(O[C@H]2C[C@@H]3CCC[C@@H](N3)[C@H]2F)nn1 (single isomer, unassigned)	MDR1-MDCK cell monolayers	MDCK-MDR1: % Recov B-A	%	95
Cn1cnc(-c2ccc(-c3ccc(O[C@@H]4C[C@@]5(C)CCC[C@](C)(N5)[C@@H]4F)nn3)c(O)c2)cc1=O (single isomer, unassigned)	MDR1-MDCK cell monolayers	MDCK-MDR1: % Recov B-A	%	75
Cn1ccc(=O)c2cc(-c3ccc(O[C@H]4C[C@]5(C)CCC[C@@](C)(N5)[C@H]4F)nn3)c(O)cc21 (single isomer, unassigned)	MDR1-MDCK cell monolayers	MDCK-MDR1: % Recov B-A	%	99
Oc1cc(-c2ccc3nncn3c2)ccc1-c1ccc(O[C@H]2C[C@@H]3CCC[C@@H](N3)[C@H]2F)nn1 (single isomer, unassigned)	MDR1-MDCK cell monolayers	MDCK-MDR1: % Recov B-A	%	87
Cc1nnc(-c2ccc(-c3ccc(O[C@@H]4C[C@H]5CCC[C@H](N5)[C@@H]4F)nn3)c(O)c2)o1 (single isomer, unassigned)	MDR1-MDCK cell monolayers	MDCK-MDR1: % Recov B-A	%	70

Exam item: Please state recorded MDCK-MDR1: % Recov B-A (tested on MDR1-MDCK cell monolayers) of Cn1cc(-c2cc(O)c(-c3ccc(O[C@@H]4C[C@H]5CCC[C@H](N5)[C@@H]4F)nn3)c(F)c2)cn1 (single isomer, unassigned)
Marked response: 80

Exam item: Please state recorded MDCK-MDR1: % Recov B-A (tested on MDR1-MDCK cell monolayers) of Cn1cc(-c2cc(O)c(-c3ccc(O[C@@H]4C[C@H]5CC[C@H](N5)[C@@H]4F)nn3)cc2F)cn1 (single isomer, unassigned)
Marked response: 79

Exam item: Please state recorded MDCK-MDR1: % Recov B-A (tested on MDR1-MDCK cell monolayers) of Oc1cc(-c2nnco2)c(F)cc1-c1ccc(O[C@@H]2C[C@H]3CC[C@H](N3)[C@@H]2F)nn1 (stereo in doubt) [142-ENT1]
Marked response: 103

Exam item: Please state recorded MDCK-MDR1: % Recov B-A (tested on MDR1-MDCK cell monolayers) of Oc1cc(-c2cn[nH]c2)ccc1-c1ccc(O[C@H]2C[C@@H]3COC[C@@H](N3)[C@H]2F)nn1 (single isomer, unassigned)
Marked response: 93

Exam item: Please state recorded MDCK-MDR1: % Recov B-A (tested on MDR1-MDCK cell monolayers) of Cn1cc(-c2ccc(-c3ccc(O[C@H]4C[C@@H]5COC[C@@H](N5)[C@H]4F)nn3)c(O)c2)cn1 (single isomer, unassigned)
Marked response: 89

Exam item: Please state recorded MDCK-MDR1: % Recov B-A (tested on MDR1-MDCK cell monolayers) of Cn1cnc(-c2ccc(-c3ccc(O[C@@H]4C[C@H]5CCC[C@H](N5)[C@@H]4F)nn3)c(O)c2)cc1=O (single isomer, unassigned)
Marked response: 98

Exam item: Please state recorded MDCK-MDR1: % Recov B-A (tested on MDR1-MDCK cell monolayers) of Oc1cc2nccnc2cc1-c1ccc(O[C@@H]2C[C@H]3CCC[C@H](N3)[C@@H]2F)nn1 (single isomer, unassigned)
Marked response: 92
